assay_text: Cytotoxicity against cat CRFK cells assessed as cell viability by MTS assay
Type: cell-based, Felis catus
condition: crfk
measured_property: CC50

// below: answered molecules
>>> print(df.to_string())
                               input_smiles  endpoint_value
0  COc1ccc(C(=O)n2c(-c3ccc(S(=O)(=O)O)cc3)nc3ccccc32)cc1     > 100 µg/mL
1  C=CC(=O)n1c(-c2ccc(S(=O)(=O)O)cc2)nc2ccccc21      > 82 µg/mL
2  O=C(c1cccnc1)n1c(-c2ccc(S(=O)(=O)O)cc2)nc2ccccc21     > 100 µg/mL
3  O=C(c1ccccc1)n1c(-c2ccc(S(=O)(=O)O)cc2)nc2ccccc21     > 100 µg/mL

Okay, now this molecule:
Entry `Nc1ccc(C(=O)n2c(-c3ccc(S(=O)(=O)O)cc3)nc3ccccc32)cc1` has what CC50?
> 100 µg/mL

====

As shown below, each of these molecules has a reported MCC value.
assay_text: Cytotoxicity against human HEL cells assessed as altered cell morphology
Assay type: cell-based

// below: answered molecules
>>> print(df.to_string())
                                   molecule  endpoint_value
0  CCCCCCCCCCCCCCCC(=O)n1c(-c2ccc(S(=O)(=O)O)cc2)nc2ccccc21     > 100 µg/mL
1  Nc1ccc(C(=O)n2c(-c3ccc(S(=O)(=O)O)cc3)nc3ccccc32)cc1     > 100 µg/mL
2  Nc1nc2c(ncn2COC(CO)CO)c(=O)[nH]1 [GANCICLOVIR]     > 100 µg/mL

Okay, now this molecule:
Entry `CCCCC(=O)n1c(-c2ccc(S(=O)(=O)O)cc2)nc2ccccc21` has what MCC?
> 100 µg/mL

====

Tested on: Candida albicans
assay_text: Antimicrobial activity against Candida albicans after 48 hrs by tube dilution method
Type: functional
measured_property: MFC

// below: answered compounds
>>> print(df.to_string())
                               input_smiles  endpoint_value
0  COc1ccc(C(=O)n2c(-c3ccc(S(=O)(=O)O)cc3)nc3ccccc32)cc1      > 50 µg/mL
1  CCCCCCCCCCCCCCCC(=O)n1c(-c2ccc(S(=O)(=O)O)cc2)nc2ccccc21      > 50 µg/mL
2  C=CC(=O)n1c(-c2ccc(S(=O)(=O)O)cc2)nc2ccccc21      > 50 µg/mL

Entry `O=C(c1ccccc1Cl)n1c(-c2ccc(S(=O)(=O)O)cc2)nc2ccccc21` has what MFC?
> 50 µg/mL

Entry `C/C=C/C(=O)n1c(-c2ccc(S(=O)(=O)O)cc2)nc2ccccc21` has what MFC?
> 50 µg/mL

Entry `C=C(C)C(=O)n1c(-c2ccc(S(=O)(=O)O)cc2)nc2ccccc21` has what MFC?
> 50 µg/mL

Entry `O=C(c1ccc(Cl)cc1)n1c(-c2ccc(S(=O)(=O)O)cc2)nc2ccccc21` has what MFC?
> 50 µg/mL

Entry `O=C(c1cccnc1)n1c(-c2ccc(S(=O)(=O)O)cc2)nc2ccccc21` has what MFC?
> 50 µg/mL

Entry `Nc1ccc(C(=O)n2c(-c3ccc(S(=O)(=O)O)cc3)nc3ccccc32)cc1` has what MFC?
> 50 µg/mL

Entry `Cc1ccc(S(=O)(=O)n2c(-c3ccc(S(=O)(=O)O)cc3)nc3ccccc32)cc1` has what MFC?
50 µg/mL

Entry `Cc1ccc(C(=O)n2c(-c3ccc(S(=O)(=O)O)cc3)nc3ccccc32)cc1` has what MFC?
50 µg/mL

Entry `O=C(c1ccccc1O)n1c(-c2ccc(S(=O)(=O)O)cc2)nc2ccccc21` has what MFC?
50 µg/mL

====

As shown below, each of these compounds has a reported MFC value.
Test system: Aspergillus niger
assay_text: Antimicrobial activity against Aspergillus niger after 7 days by tube dilution method
Assay type: functional
condition: 168 h

// below: answered compounds
>>> print(df.to_string())
                               input_smiles  endpoint_value
0  O=C(c1ccc(O)cc1O)n1c(-c2ccc(S(=O)(=O)O)cc2)nc2ccccc21      > 50 µg/mL
1  Cc1ccccc1C(=O)n1c(-c2ccc(S(=O)(=O)O)cc2)nc2ccccc21      > 50 µg/mL

Okay, now this compound:
Entry `CCCCC(=O)n1c(-c2ccc(S(=O)(=O)O)cc2)nc2ccccc21` has what MFC?
> 50 µg/mL

====

assay_text: Cytotoxicity against human HEL cells assessed as altered cell morphology
Type: cell-based
measured_property: MCC

// below: answered compounds
In [3]: df
Out[3]:
                               input_smiles  measured_property  endpoint_value
0  O=C(c1ccccc1)n1c(-c2ccc(S(=O)(=O)O)cc2)nc2ccccc21                MCC     > 100 µg/mL
1  C=C(C)C(=O)n1c(-c2ccc(S(=O)(=O)O)cc2)nc2ccccc21                MCC     > 100 µg/mL
2  Cc1ccccc1C(=O)n1c(-c2ccc(S(=O)(=O)O)cc2)nc2ccccc21                MCC     > 100 µg/mL
3  Cc1ccc(S(=O)(=O)n2c(-c3ccc(S(=O)(=O)O)cc3)nc3ccccc32)cc1                MCC     > 100 µg/mL
4  O=C(c1cccc(O)c1)n1c(-c2ccc(S(=O)(=O)O)cc2)nc2ccccc21                MCC     > 100 µg/mL

Okay, now this compound:
Entry `O=C(c1ccc([N+](=O)[O-])cc1)n1c(-c2ccc(S(=O)(=O)O)cc2)nc2ccccc21` has what MCC?
> 100 µg/mL

Measured values drawn from ChEMBL document CHEMBL1629526 for this set.
